- Test system: SK-MEL-2 melanoma
- TEST DETAILS: NCI-60 one-dose screen, 48 h (100 = growth as untreated, 0 = no growth, -100 = all killed)
- STATED CONDITIONS: 10 µM unless noted
About 83,000 compounds went through this panel and 20% of them were active in at least one assay; those are over-represented in the sample as a whole.
ENDPOINT LABEL: growth (%)
Express the result in % but write the number alone.

// below: answered compounds
NCCOc1ncccc1/C=C1\c2ccccc2-c2ccc([N+](=O)[O-])cc21 :: -21.2
CCN1C(=O)N(CC)C2C1NN=c1s/c(=C3\C(=O)N(CC(C)(C)C)c4ccccc43)c(=O)n12 (stereo not given) :: 53.6
Cc1ccc2c(n1)C(=O)C(Oc1ccc(Br)cc1)=CC2=O :: 91.7
S=C1CCCC(=S)N1 :: 102
COc1cc(-c2c3c(c(Br)n2Cc2ccccc2)-c2nc(N)sc2CC3)cc(OC)c1OC :: 101
COc1ccc(CCN2C(=O)/C(=C/c3ccc(C4Oc5ccccc5C5CC(c6cccc(OC)c6)=NN54)cc3)SC2=S)cc1 (stereo not given) :: 99.8

[ask] Entry under review: `CCCc1c(C)c2sc(=O)[nH]c2[nH]c1=O` . Reported growth?
[reply] 108

[ask] Quick one: growth for `CN(C)c1ccc(N=Cc2ccc(N3CCOCC3)cc2)cc1` ?
[reply] 67.2

[ask] What growth value was documented for this compound, COc1ccc(C2c3ccc4ccccc4c3Oc3ncn(CCCn4ccnc4)c(=N)c32)cc1OC (stereo not given) ?
[reply] 81.4

[ask] Using the record for `COc1cc(C#N)cc2[nH]c(=O)oc12` , report its growth.
[reply] 106

---

- Tested on: HCT-15 colon
- TEST DETAILS: NCI-60 one-dose screen, 48 h (100 = growth as untreated, 0 = no growth, -100 = all killed)
- STATED CONDITIONS: 10 µM unless noted
The panel holds about 83,000 compounds, 20% with a hit somewhere; the sample as a whole holds those more often.
ENDPOINT LABEL: growth (%)
# output: bare number, implied unit %

Cc1c(-c2csc(-n3nc(C(F)(F)F)cc3C(F)(F)F)n2)no[n+]1[O-] :: 95.4
CCN1CCN(C(=S)SCC(=O)Nc2nc3ccc(C)cc3s2)CC1 :: 103
CCCN1C(=O)N(CCC)C2C1NN=c1s/c(=C3\C(=O)N(C(C)C)c4ccccc43)c(=O)n12 (centres undefined) :: 24.4
CCOC(=O)c1cnc2c(C)cccc2c1Nc1ccc(C(C)=O)cc1 :: 0.0229

[ask] For `COc1c(B(O)O)cccc1-c1nc2ccc3n[nH]c(F)c3c2c2c1CCCC2` , what is its reported growth?
[reply] 85.3

[ask] Look at this compound and give its reported growth. `CN1CCN(Cc2ccc(NC(=O)c3[nH]ncc3Nc3cc(OC4CCCC4)ncn3)cc2)CC1`
[reply] 12.9

[ask] # query: growth of entry `NCCOc1ccccc1/C=C1\c2ccccc2-c2ccc([N+](=O)[O-])cc21`
[reply] -52.7

[ask] Recorded growth for C1=CC2(C=C1)OC21CCC2(C=CC3(C2)OC3C2CCCCC2)CC1 (centres undefined) , please?
[reply] 101

[ask] Recorded growth of `O=C(Nc1ccc(F)c(Cl)c1)Nc1ccc(Cl)c(Cl)c1` , please.
[reply] 53.1

[ask] Need growth, item `CC(=O)c1ccc(Nc2nc(NCCO)nc(Nc3ccc(Cl)cc3)n2)cc1`
[reply] 73.9
